# Assay info: Stability in human MIA PaCa-2 cells assessed as compound remaining at 0.2 mM after 72 hrs by HPLC analysis
# Format: ADME, cell-based
# Conditions used: read-out: Stability
Quantity measured: remaining at 72 h, 200 µM

Query string: Tell us which remaining at 72 h, 200 µM value is on record for C=CC(=O)N1CCN(c2nc(=O)n(-c3c(C)ccnc3C(C)C)c3nc(-c4c(O)cccc4F)c(F)cc23)[C@@H](C)C1
Result string: > 70%
